# experimental_target: Preformed immune complex of peroxidase and rabbit anti-peroxidase IgG (PAP complex) (horseradish) (UniProt P00433)
# Sequence (P00433 31-338, one chain of several): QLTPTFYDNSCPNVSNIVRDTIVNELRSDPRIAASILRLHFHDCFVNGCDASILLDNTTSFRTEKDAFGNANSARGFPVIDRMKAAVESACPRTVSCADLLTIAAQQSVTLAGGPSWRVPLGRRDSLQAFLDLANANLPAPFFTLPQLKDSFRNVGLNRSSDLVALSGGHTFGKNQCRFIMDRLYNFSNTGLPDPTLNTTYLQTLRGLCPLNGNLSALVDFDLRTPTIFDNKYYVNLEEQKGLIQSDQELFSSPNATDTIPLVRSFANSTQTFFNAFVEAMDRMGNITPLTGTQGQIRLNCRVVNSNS
# procedure_details: competition reverse ELISA: PAP pre-incubated with peptide, residual PAP binding to FcγIIa-coated plate
No end group written: not given here.
Lab note - cut at 0.7 OD for OD 405 nm: Yes if strictly below, No if not.

Check out these entries, answers already filled in.
[
  {
    "binder": "APPCAFHLGELVWCT (not fully specified; cysteine pairing not given here) [Peptide … (SEQ ID NO:15)]",
    "cat": "Yes"
  },
  {
    "binder": "APPCARHLGELVWCT (not fully specified; cysteine pairing not given here) [Peptide … (SEQ ID NO:14)]",
    "cat": "No"
  },
  {
    "binder": "APPDCAWHLGELVWCT [Peptide … (SEQ ID NO:16)]",
    "cat": "Yes"
  }
]

Q: Does the reported OD 405 nm of the following binder sit strictly below 0.7 OD? DCAFHLGELVWCT [Peptide … (SEQ ID NO:3)]
Ans: Yes

Q: Next entry: APPCAWHLGELVWCT (not fully specified; cysteine pairing not given here) [Peptide … (SEQ ID NO:13)]
Ans: Yes
